Test system: Staphylococcus aureus
experiment notes: Antibacterial activity against methicillin-susceptible Staphylococcus aureus isolate 1 by agar dilution method
Format: functional

compound	endpoint unit	MIC
CC[C@H]1OC(=O)[C@H](C)C(=O)[C@H](C)[C@@H](O[C@@H]2O[C@H](C)C[C@H](N(C)C)[C@H]2O)[C@](C)(OC)C[C@@H](C)/C(=N\OC/C=C/c2ccc3c(c2)OCO3)[C@H](C)[C@@H](O)[C@]1(C)O	µg/mL	1
CC[C@H]1OC(=O)[C@H](C)C(=O)[C@H](C)[C@@H](O[C@@H]2O[C@H](C)C[C@H](N(C)C)[C@H]2O)[C@](C)(OC)C[C@@H](C)/C(=N\OC/C=C/c2cncnc2)[C@H](C)[C@@H](O)[C@]1(C)O	µg/mL	0.5
CC[C@H]1OC(=O)[C@H](C)C(=O)[C@H](C)[C@@H](O[C@@H]2O[C@H](C)C[C@H](N(C)C)[C@H]2O)[C@](C)(OC)C[C@@H](C)/C(=N\OC/C=C/c2ccc(OC)c(OC)c2)[C@H](C)[C@@H](O)[C@]1(C)O	µg/mL	0.5
